Reference for the values: ChEMBL document CHEMBL1130514

- STUDY TARGET: Plasminogen (Homo sapiens)
- Sequence (P00747 97-580 limits assumed): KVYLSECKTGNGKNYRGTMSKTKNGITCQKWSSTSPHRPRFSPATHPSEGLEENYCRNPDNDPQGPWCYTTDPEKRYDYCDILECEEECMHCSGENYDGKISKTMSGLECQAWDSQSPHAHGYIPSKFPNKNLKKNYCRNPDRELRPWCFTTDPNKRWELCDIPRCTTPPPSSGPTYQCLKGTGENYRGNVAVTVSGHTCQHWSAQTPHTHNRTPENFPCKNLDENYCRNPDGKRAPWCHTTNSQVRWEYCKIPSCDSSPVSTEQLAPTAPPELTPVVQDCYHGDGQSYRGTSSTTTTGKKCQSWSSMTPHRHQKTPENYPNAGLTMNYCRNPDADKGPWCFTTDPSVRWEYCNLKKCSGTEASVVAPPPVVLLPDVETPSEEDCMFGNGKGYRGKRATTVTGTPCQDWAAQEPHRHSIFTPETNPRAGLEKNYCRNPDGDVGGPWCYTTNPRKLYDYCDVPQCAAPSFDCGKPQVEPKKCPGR
- Sequence (P00747 581-810 limits assumed): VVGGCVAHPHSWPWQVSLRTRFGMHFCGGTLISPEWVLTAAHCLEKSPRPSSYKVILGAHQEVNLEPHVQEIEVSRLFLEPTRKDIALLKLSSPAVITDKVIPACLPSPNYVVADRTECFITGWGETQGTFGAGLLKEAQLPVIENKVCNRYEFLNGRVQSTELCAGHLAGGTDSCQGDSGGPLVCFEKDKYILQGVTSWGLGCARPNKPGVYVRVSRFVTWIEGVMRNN
- ASSAY SUMMARY: In vitro ability to inhibit the activity of Plasmin
pIC50: −log10 of the molar value. Where a SMILES comes first, the peptide text is derived from it. The star is where a group is joined. PhAc = O=C(Cc1ccccc1)*
MEASURED ENDPOINT: pIC50

> print(dat)
                                   molecule                study.target  measured.endpoint  value.measured
1  CC1CNc2c(cccc2S(=O)(=O)N[C@@H](CCCNC(=N)N)C(=O)N2CCC(C)C[C@@H]2C(=O)O)C1 (single isomer, unassigned)  Plasminogen (Homo sapiens)              pIC50            3.10
2  CC1CNc2c(cccc2S(=O)(=O)N[C@H]2CCC[C@H]3CC[C@@H](C(=O)N[C@H]4CCCN(C(=N)N)C4O)N3C2=O)C1 (stereo partly specified)  Plasminogen (Homo sapiens)              pIC50            5.98
3  CN[C@H](Cc1ccccc1)C(=O)N1CCC[C@H]1C(=O)N[C@H](C=O)CCCN=C(N)N  Plasminogen (Homo sapiens)              pIC50            6.30
4  CC(=O)N[C@H]1CCC[C@H]2CC[C@@H](C(=O)N[C@H]3CCCN(C(=N)N)C3O)N2C1=O (stereo partly specified)  Plasminogen (Homo sapiens)              pIC50            4.13

(1) N=C(N)NCCC[C@@H](C=O)NC(=O)[C@@H]1CCCN1C(=O)Cc1ccccc1 (PhAc-Pro-Arg-aldehyde)
(2) N=C(N)N1CCC[C@H](NC(=O)[C@@H]2CC[C@@H]3CCC[C@H](NS(=O)(=O)c4cccc5ccccc45)C(=O)N32)C1O (stereo partly specified)
Could you tell me which of 1 and 2 has the lower pIC50 reading? Select an item and report its label.
1

---

Where a SMILES comes first, the peptide text is derived from it. [ ]: non-standard residue; d: D form. The star is where a group is joined. dNMePhg = CN[C@@H](C(=O)O)c1ccccc1; PhAc = O=C(Cc1ccccc1)*
Prothrombin (Homo sapiens): reported IC50 for various compounds.
MEASURED ENDPOINT: IC50 (nM)

In the examples that follow, each entry is paired with its recorded IC50.
> print(dat)
                                   compound  value.measured
1  CC(=O)N[C@@]1(Cc2ccccc2)CC[C@H]2CC[C@@H](C(=O)N[C@H]3CCCN(C(=N)N)C3O)N2C1=O (stereo partly drawn)            3900
2  N=C(N)N1CCC[C@H](NC(=O)[C@@H]2CC[C@@H]3CCC(Cc4ccccc4)C(=O)N32)C1O (stereo partly drawn)            4600
3  N=C(N)N1CCC[C@H](NC(=O)[C@@H]2CC[C@@H]3CCC[C@H](NS(=O)(=O)Cc4ccccc4)C(=O)N32)C1O (stereo partly drawn)             110
4  CC1CNc2c(cccc2S(=O)(=O)N[C@H]2CCC[C@H]3CC[C@@H](C(=O)N[C@H]4CCCN(C(=N)N)C4O)N3C2=O)C1 (stereo partly drawn)              18

(P) N=C(N)N1CCC[C@H](NC(=O)[C@@H]2CC[C@@H]3CCC[C@H](NS(=O)(=O)c4cccc5ccccc45)C(=O)N32)C1O (stereo partly drawn)
(Q) N=C(N)NCCC[C@@H](C=O)NC(=O)[C@@H]1CCCN1C(=O)Cc1ccccc1 (PhAc-Pro-Arg-aldehyde)
(R) CC(=O)N[C@H]1CCC[C@H]2CC[C@@H](C(=O)N[C@H]3CCCN(C(=N)N)C3O)N2C1=O (stereo partly drawn)
(S) CN[C@@H](C(=O)N1CCC[C@H]1C(=O)N[C@H](C=O)CCCNC(=N)N)c1ccccc1 (H-[dNMePhg]-Pro-Arg-aldehyde)
Write the entries in order, lowest recorded IC50 first. Please list each label once, in the requested order.
S, P, Q, R
